assay: amyloid nucleation score (Sup35N fusion, yeast selection) (log enrichment); library NNK2; higher = more nucleation; inactive = no reads after selection;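 also: zero at mode of non-aggregating sequences after 7 days selection at 30°C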
Property Measured: amyloid nucleation score
Please reply with the number alone, leaving off any unit.

The examples below pair each entry with its known result.
SDRFMIVVDWVILVVLCMT | -0.611
RIYLVAIYL | 3.49
DAAHSFYLSSGNESFVLELT | -0.327
YTFGTNWVCW | 3.6

Exercise: Answer with reported amyloid nucleation score of MDLVSSFRLNVCGT
Key: 0.089

Exercise: Provide measured amyloid nucleation score value, entry: NASLYVSYGM
Key: 1.5

###

Recorded amyloid nucleation score for the following substances
test: amyloid nucleation score (Sup35N fusion, yeast selection) (log enrichment); library NNK2; higher = more nucleation; inactive = no reads after selection
Just the number, please, no unit attached.

Consider the following illustrative entries.
RPVCKFL | 0.275
EQHIDSAMENFSDHDIVMLG | 4.76
QFAHFKNLWVFVLSCRWLPT | -0.158
SRFPGCSVSTGRHRTKVSSR | 0.177
RNSIFNG | -0.796

Exercise: Annotate the substance FIIMFIRLLSW with its measured amyloid nucleation score.
Key: 1.12

Exercise: Find the measured amyloid nucleation score of LFLSLRVRRYVQHKKSGSAG and report it.
Key: 0.082

Exercise: Indicate its recorded amyloid nucleation score; the substance in question is CVINKKNYDSFGFSVFTFYK
Key: 3.19

Exercise: For the substance GVKWSVSFKNWHYWKSMSVV , give its measured amyloid nucleation score value.
Key: 1.26

###

test: amyloid nucleation score (Sup35N fusion, yeast selection) (log enrichment); library NNK3; higher = more nucleation; inactive = no reads after selection
Property Measured: amyloid nucleation score

RVITCWSQQCWHDRCLVCGK | inactive
VCVKYAMTPVWSAGAARFHK | inactive
GVFFFNYLNS | 0.63
LSCSQKV | inactive
CYNQRGCTIGILQFLPRPVW | inactive
ANVDTIDFASAVILF | inactive
WQTKIGYSGRLFDRTLGDAK | inactive
DGFLKLEFAFQCFTRLCLAF | inactive

Exercise: Determine its reported amyloid nucleation score: TAIYIDRNECSLKVYRIKDK
Key: 0.612

Exercise: Item PWLSVSRVVVGRSLDGNNCP : provide amyloid nucleation score
Key: inactive

Exercise: Using the record for SVFRDSRPLLYDVNMVNGGG , state its measured amyloid nucleation score.
Key: inactive

Exercise: Please list amyloid nucleation score recorded for the substance DNKVFTLSNQA
Key: inactive

Exercise: State its amyloid nucleation score: FSWFHRRSYSVVTSLCLMGR
Key: inactive

###

assay: amyloid nucleation score (Sup35N fusion, yeast selection) (log enrichment); library NNK2; higher = more nucleation; inactive = no reads after selection
Property Measured: amyloid nucleation score

Some solved entries appear below for comparison.
YSFNALRRY | 0.632
FKSTYVHHYRVMPGSVVLLR | -1.2
SICYFCLFLNIIDSDSIFAV | 5.87
EVHHNGM | 0.367

Exercise: Fill in amyloid nucleation score for record YMLINAMVTFFMHGVDRKRR
Key: 5.52

Exercise: Return amyloid nucleation score (reported value) for this substance: RYKSFMVQQSIDNRVLVGVC
Key: 0.241

Exercise: Read off the recorded amyloid nucleation score for MVCLLSFPHPCGINLMVARN
Key: -0.147

Exercise: Identify measured amyloid nucleation score corresponding to YSFLWSVTATFDVTIISGCA
Key: 3.1

Exercise: Output amyloid nucleation score of RHLISSLRELHTTLNLHRPE
Key: 0.101
